System: T-47D breast
Experiment: NCI tumour cell line growth inhibition, 48 h; in the data active means GI50 below about 0.43 µM; inactive means the rest
Classes used: active, inactive

> print(dat)
                               smiles.entry     tested.on  category.label
1  O=[N+]([O-])c1ccc(N/N=C\c2ccc(O)cc2O)nc1  T-47D breast        inactive
2  CC/C(=C(/c1ccc(Cl)cc1)c1ccc(OCCCN(C)C)cc1)c1ccc(OC)cc1  T-47D breast        inactive
3  Nc1ncnc2c1c(-c1ccc(Oc3ccccc3)cc1)nn2C[C@H]1SSC[C@H]1O  T-47D breast          active
4  COc1cc(Nc2nccc(-c3cnn4ncccc34)n2)cc(OC)c1  T-47D breast          active
5  Cn1cc(C2=C(c3cn(CCCN/C(N)=N\[N+](=O)[O-])c4ccccc34)C(=O)NC2=O)c2ccccc21  T-47D breast        inactive

Origin of measurements: PubChem BioAssay (NCI)
